system: mice (stay in light compartment); assay: Light and dark box test (anti-anxiety effect); format: in vivo; details: Mus musculus, po, 0.5 h, male Std-ddY mice, 30 minutes before test, Dunnett test 5%, read-out: Anti-anxiety effect MED (minimum effective dose)
Recorded minimal effective dose for the following compounds

compound: CCCN(CCC)C(=O)Cn1c(=O)n(CC)c2cnc(-c3ccccc3)nc21 [Example 107]
minimal effective dose: 1 to 3 µg/kg
//
compound: CCN(Cc1ccccc1)C(=O)Cn1c(=O)n(C)c2cnc(-c3ccc(Cl)cc3)nc21 [Example 147]
minimal effective dose: 1 to 3 µg/kg
//
compound: CN(C(=O)Cn1c(=O)n(C)c2nc(-c3ccccc3)ncc21)c1ccccc1 [Example 2]
minimal effective dose: 1 to 3 µg/kg
//
compound: CCN(C(=O)Cn1c(=O)n(C)c2nc(-c3ccc(F)cc3)ncc21)c1ccccc1 [Example 12]
minimal effective dose: 10 µg/kg
//
compound: CN(C(=O)Cn1c(=O)n(C)c2nc(-c3ccc(F)cc3)ncc21)c1ccccc1 [Example 5]
minimal effective dose: 1 to 3 µg/kg
//
compound: COc1ccc(N(C)C(=O)Cn2c(=O)n(C)c3cnc(-c4ccccc4)nc32)cc1 [Example 163]
minimal effective dose: 100 µg/kg
//
compound: CN(Cc1ccccc1)C(=O)Cn1c(=O)n(C)c2nc(-c3ccc(F)cc3)ncc21 [Example 50]
minimal effective dose: 100 µg/kg
//
compound: CCN(C(=O)Cn1c(=O)n(C)c2nc(-c3ccccc3)ncc21)c1ccccc1 [Example 1]
minimal effective dose: 1 to 3 µg/kg
//
compound: CCCN(CCC)C(=O)Cn1c(=O)n(C)c2cnc(-c3ccccc3)nc21 [Example 106]
minimal effective dose: 1 to 3 µg/kg
//
compound: CCCN(CCC)C(=O)Cn1c(=O)n(CC)c2cnc(-c3ccc(Cl)cc3)nc21 [Example 116]
minimal effective dose: 10 µg/kg
//
compound: CN(Cc1ccccc1)C(=O)Cn1c(=O)n(C)c2cnc(-c3ccc(Cl)cc3)nc21 [Example 137]
minimal effective dose: 1 to 3 µg/kg
